Reported IC50 by item:
# Test system: Olaparib-resistant HCT116
# test description: Antiproliferative activity against human Olaparib-resistant HCT116 cells harboring BRCA2 mutant assessed as inhibition of cell growth incubated for 7 days by MTT assay
# Assay type: functional, cell-based
# setup conditions: Olaparib-resistant HCT116, 168 h
A number alone suffices; assume µM.

O=C(c1cc(Cc2n[nH]c(=O)c3ccccc23)ccc1F)N1CCN(C(=O)C2CC2)CC1 = 50.8

// `C[C@@H](Oc1cc(-c2cnn(C3CCNCC3)c2)cnc1N)c1c(Cl)ccc(F)c1Cl` : IC50 value = 3.15

// `O=C(c1cc(Cc2n[nH]c(=O)c3ccccc23)ccc1F)N1CCN(c2ccc3c(OCCn4nc(-c5cccnc5)ccc4=O)ccnc3c2)CC1` : IC50 value = 5.33

---

# test description: Cmax in male SPF-ICR mouse at 10 mg/kg, ip measured upto 24 hrs by LC-MS/MS analysis
# Type: ADME, organism-based
# setup conditions: in vivo
reported endpoint: Cmax (ng/mL)
A number alone suffices; assume ng/mL.

// `Cl.O=C(c1cc(Cc2n[nH]c(=O)c3ccccc23)ccc1F)N1CCN(c2ccc3c(OCCn4nc(-c5cccnc5)ccc4=O)ccnc3c2)CC1` : Cmax value = 152

---

# test description: Tmax in male SPF-ICR mouse at 10 mg/kg, ip measured upto 24 hrs by LC-MS/MS analysis
# Type: ADME, organism-based
# setup conditions: in vivo
reported endpoint: Tmax (min)
A number alone suffices; assume min.

// `Cl.O=C(c1cc(Cc2n[nH]c(=O)c3ccccc23)ccc1F)N1CCN(c2ccc3c(OCCn4nc(-c5cccnc5)ccc4=O)ccnc3c2)CC1` : Tmax value = 15

---

Reported pIC50 by item:
# assay system: UniProt P09874
# Sequence (P09874 whole entry): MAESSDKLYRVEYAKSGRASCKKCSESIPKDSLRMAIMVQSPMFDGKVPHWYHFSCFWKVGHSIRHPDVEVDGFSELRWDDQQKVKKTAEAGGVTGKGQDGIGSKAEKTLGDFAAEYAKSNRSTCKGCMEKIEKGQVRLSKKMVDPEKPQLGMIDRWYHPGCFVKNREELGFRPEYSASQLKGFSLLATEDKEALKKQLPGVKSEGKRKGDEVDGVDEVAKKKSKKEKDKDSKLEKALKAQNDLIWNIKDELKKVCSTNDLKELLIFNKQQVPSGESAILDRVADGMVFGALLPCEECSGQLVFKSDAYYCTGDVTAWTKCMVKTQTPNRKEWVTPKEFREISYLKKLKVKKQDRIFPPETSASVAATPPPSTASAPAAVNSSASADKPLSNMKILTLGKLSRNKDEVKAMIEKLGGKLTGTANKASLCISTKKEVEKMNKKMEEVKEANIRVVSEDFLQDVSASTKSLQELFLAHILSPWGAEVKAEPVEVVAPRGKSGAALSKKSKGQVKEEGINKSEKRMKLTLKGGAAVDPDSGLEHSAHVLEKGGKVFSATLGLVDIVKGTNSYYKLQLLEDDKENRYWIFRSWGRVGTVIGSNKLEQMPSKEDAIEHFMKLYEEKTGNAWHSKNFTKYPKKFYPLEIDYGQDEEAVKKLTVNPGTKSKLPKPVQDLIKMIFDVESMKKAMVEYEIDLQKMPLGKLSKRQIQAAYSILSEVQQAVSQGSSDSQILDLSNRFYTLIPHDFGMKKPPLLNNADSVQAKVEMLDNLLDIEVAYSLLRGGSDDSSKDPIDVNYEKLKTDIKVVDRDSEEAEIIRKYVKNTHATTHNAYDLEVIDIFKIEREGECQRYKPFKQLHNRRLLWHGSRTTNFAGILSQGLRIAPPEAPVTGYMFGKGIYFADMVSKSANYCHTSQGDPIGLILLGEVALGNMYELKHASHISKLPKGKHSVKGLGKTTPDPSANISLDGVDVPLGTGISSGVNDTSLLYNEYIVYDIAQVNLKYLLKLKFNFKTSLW
# pIC50: negative log10 of molar concentration; output just the value

Field: example entries. Status: answers known.
O=C(c1cc(Cc2n[nH]c(=O)c3ccccc23)ccc1F)N1CCN(c2ccc3c(OCCn4nc(-c5cccnc5)ccc4=O)ccnc3c2)CC1 = 8.48
O=C(c1cc(Cc2n[nH]c(=O)c3ccccc23)ccc1F)N1CCN(c2ccc3c(OCCn4ncccc4=O)ccnc3c2)CC1 = 9.05
Cn1cc(-c2ccc(=O)n(CCOc3ccnc4cc(OC5CCN(C(=O)c6cc(Cc7n[nH]c(=O)c8ccccc78)ccc6F)CC5)ccc34)n2)cn1 = 8.68
O=C(c1cc(Cc2n[nH]c(=O)c3ccccc23)ccc1F)N1CCN(c2ccc3c(OCCn4nc(-c5ccccc5)ccc4=O)ccnc3c2)CC1 = 8.96
Cn1cc(-c2ccc(=O)n(CCOc3ccnc4cc(NC5CCN(C(=O)c6cc(Cc7n[nH]c(=O)c8ccccc78)ccc6F)CC5)ccc34)n2)cn1 = 8.33

// `Cn1cc(-c2ccc(=O)n(CCOc3ccnc4cc(OCCN5CCN(C(=O)c6cc(Cc7n[nH]c(=O)c8ccccc78)ccc6F)CC5)ccc34)n2)cn1` : pIC50 value = 8.43

// Cn1cc(-c2ccc(=O)n(CCOc3ccnc4cc(NC5CCN(C(=O)c6cc(Cc7n[nH]c(=O)c8ccccc78)ccc6F)C5)ccc34)n2)cn1 (stereo not drawn) : pIC50 value = 8.24

// `O=C(c1cc(Cc2n[nH]c(=O)c3ccccc23)ccc1F)N1CCN(c2ccc3c(OCCn4nc(-c5ccc(C(F)(F)F)cc5)ccc4=O)ccnc3c2)CC1` : pIC50 value = 8.14

---

# test description: MRT (0 to t) in male SPF-ICR mouse at 10 mg/kg, ip measured upto 24 hrs by LC-MS/MS analysis
# Format: ADME, organism-based
# setup conditions: in vivo
reported endpoint: MRT last at 24 h (h)
A number alone suffices; assume h.

// `Cl.O=C(c1cc(Cc2n[nH]c(=O)c3ccccc23)ccc1F)N1CCN(c2ccc3c(OCCn4nc(-c5cccnc5)ccc4=O)ccnc3c2)CC1` : MRT last at 24 h value = 1.67

---

# assay system: Hepatocyte growth factor receptor (Homo sapiens, UniProt P08581)
# Sequence (P08581 whole entry): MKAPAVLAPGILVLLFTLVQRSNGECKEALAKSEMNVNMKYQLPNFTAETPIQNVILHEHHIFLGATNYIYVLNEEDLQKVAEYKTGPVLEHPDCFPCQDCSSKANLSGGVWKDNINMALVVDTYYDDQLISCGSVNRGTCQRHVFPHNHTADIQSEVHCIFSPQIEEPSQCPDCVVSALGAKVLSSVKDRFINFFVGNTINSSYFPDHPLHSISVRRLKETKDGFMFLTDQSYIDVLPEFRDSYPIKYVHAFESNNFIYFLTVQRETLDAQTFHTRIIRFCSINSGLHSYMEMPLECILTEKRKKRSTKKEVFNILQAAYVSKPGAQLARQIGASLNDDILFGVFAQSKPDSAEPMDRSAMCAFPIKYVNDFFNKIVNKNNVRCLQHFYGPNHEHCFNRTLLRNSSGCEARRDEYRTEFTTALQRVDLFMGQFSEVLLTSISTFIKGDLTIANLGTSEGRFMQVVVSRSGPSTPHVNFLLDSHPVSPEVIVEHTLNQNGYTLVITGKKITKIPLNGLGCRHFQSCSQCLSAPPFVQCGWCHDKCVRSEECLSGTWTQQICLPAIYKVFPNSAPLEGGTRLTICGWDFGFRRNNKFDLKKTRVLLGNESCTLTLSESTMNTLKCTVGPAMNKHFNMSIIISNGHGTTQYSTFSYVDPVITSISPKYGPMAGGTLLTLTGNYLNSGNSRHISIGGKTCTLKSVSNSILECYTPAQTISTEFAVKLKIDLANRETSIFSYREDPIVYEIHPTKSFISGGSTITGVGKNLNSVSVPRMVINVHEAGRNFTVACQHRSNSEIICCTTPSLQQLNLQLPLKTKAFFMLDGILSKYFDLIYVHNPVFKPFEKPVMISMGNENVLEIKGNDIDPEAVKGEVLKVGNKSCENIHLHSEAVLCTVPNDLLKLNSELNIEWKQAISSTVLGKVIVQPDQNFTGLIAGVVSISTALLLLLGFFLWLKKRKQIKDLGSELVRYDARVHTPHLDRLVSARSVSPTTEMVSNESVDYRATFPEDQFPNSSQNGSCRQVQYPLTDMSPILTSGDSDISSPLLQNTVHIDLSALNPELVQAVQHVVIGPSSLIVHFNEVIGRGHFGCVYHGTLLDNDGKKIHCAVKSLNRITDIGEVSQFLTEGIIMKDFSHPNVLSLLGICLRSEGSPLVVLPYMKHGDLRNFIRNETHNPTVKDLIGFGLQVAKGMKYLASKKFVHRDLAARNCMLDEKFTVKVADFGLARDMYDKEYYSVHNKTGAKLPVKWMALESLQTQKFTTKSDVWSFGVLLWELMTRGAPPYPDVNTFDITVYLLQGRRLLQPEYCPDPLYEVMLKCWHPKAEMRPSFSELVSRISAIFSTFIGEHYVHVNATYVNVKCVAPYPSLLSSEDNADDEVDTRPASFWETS
# test description: Inhibition of c-Met (unknown origin) by HTRF method
IC50 strictly less than 40 nM = 1.0. Otherwise 0.0.

Worked examples follow.
O=C(c1cc(Cc2n[nH]c(=O)c3ccccc23)ccc1F)N1CCN(c2ccc3c(OCCn4nc(-c5ccccc5)ccc4=O)ccnc3c2)CC1 = 1.0
Cn1cc(-c2ccc(=O)n(CCOc3ccnc4cc(N5CCC(NC(=O)c6cc(Cc7n[nH]c(=O)c8ccccc78)ccc6F)C5)ccc34)n2)cn1 (stereo unspecified) = 1.0
O=C(c1cc(Cc2n[nH]c(=O)c3ccccc23)ccc1F)N1CCN(c2ccc3c(OCCn4nc(-c5cccnc5)ccc4=O)ccnc3c2)CC1 = 1.0

Input line: # strict comparison: is reported IC50 < 40 nM? input = `Cn1cc(-c2ccc(=O)n(CCOc3ccnc4cc(NC5CCN(C(=O)c6cc(Cc7n[nH]c(=O)c8ccccc78)ccc6F)CC5)ccc34)n2)cn1`
Output line: 0.0

Input line: # strict comparison: is reported IC50 < 40 nM? input = `Cn1cc(-c2ccc(=O)n(CCOc3ccnc4cc(N5CCC(NC(=O)c6cc(Cc7n[nH]c(=O)c8ccccc78)ccc6F)CC5)ccc34)n2)cn1`
Output line: 0.0

Input line: # strict comparison: is reported IC50 < 40 nM? input = `Cn1cc(-c2ccc(=O)n(CCOc3ccnc4cc(OCCN5CCN(C(=O)c6cc(Cc7n[nH]c(=O)c8ccccc78)ccc6F)CC5)ccc34)n2)cn1`
Output line: 1.0

---

# test description: Cytotoxicity against NRK cells assessed as inhibition of cell growth incubated for 72 hrs by MTT assay
# Type: toxicity, cell-based
# setup conditions: rat
reported endpoint: IC50 at 72 h (µM)
A number alone suffices; assume µM.

// `O=C(c1cc(Cc2n[nH]c(=O)c3ccccc23)ccc1F)N1CCN(c2ccc3c(OCCn4nc(-c5cccnc5)ccc4=O)ccnc3c2)CC1` : IC50 at 72 h value = 8.73

---

# test description: AUC (0 to infinity) in male SPF-ICR mouse at 10 mg/kg, ip measured upto 24 hrs by LC-MS/MS analysis
# Type: ADME, organism-based
# setup conditions: in vivo
reported endpoint: AUC(0-inf)

// `Cl.O=C(c1cc(Cc2n[nH]c(=O)c3ccccc23)ccc1F)N1CCN(c2ccc3c(OCCn4nc(-c5cccnc5)ccc4=O)ccnc3c2)CC1` : AUC(0-inf) value = 96.7 ng·h/mL

---

# test description: Clearance in male SPF-ICR mouse at 10 mg/kg, ip measured upto 24 hrs by LC-MS/MS analysis
# Type: ADME, organism-based
# setup conditions: in vivo
reported endpoint: CL/F

// `Cl.O=C(c1cc(Cc2n[nH]c(=O)c3ccccc23)ccc1F)N1CCN(c2ccc3c(OCCn4nc(-c5cccnc5)ccc4=O)ccnc3c2)CC1` : CL/F value = 121 L/h/kg

---

# test description: AUC (0 to t) in male SPF-ICR mouse at 10 mg/kg, ip measured upto 24 hrs by LC-MS/MS analysis
# Type: ADME, organism-based
# setup conditions: in vivo
reported endpoint: AUC(0-t) at 24 h (ng·h/mL)
A number alone suffices; assume ng·h/mL.

// `Cl.O=C(c1cc(Cc2n[nH]c(=O)c3ccccc23)ccc1F)N1CCN(c2ccc3c(OCCn4nc(-c5cccnc5)ccc4=O)ccnc3c2)CC1` : AUC(0-t) at 24 h value = 95.4
